target: T1, Kr (human, UniProt Q01973); assay: ELISA on directly coated hFc fusion proteins of hROR1 domains; anti-His-HRP; A405
T1 construct: Kringle domain of the extracellular domain; also called hFc-hROR1-Kr
T1 sequence (Q01973 312-391 limits assumed): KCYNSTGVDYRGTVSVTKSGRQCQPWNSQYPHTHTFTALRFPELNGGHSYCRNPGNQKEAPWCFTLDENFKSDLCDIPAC

BINDER: ERR1-TOP43 chimeric rabbit/human Fab (Fab, V domains shown, Chimeric rabbit/human Fab with His tag, expressed in E. coli (pET11a); lambda light chain) VH: QSLEESGGRLVTPGTPLTLTCTVSGFSLSSYWMSWVRQAPGKGLEWIGAIYGSGNTYYASWAKGRFTISKTSTTVDLKITSPTTEDTATYFCARDVHSTATDLWGPGTLVTISS VL: SYELTQLPSVSVSLGQTARITCGGNNIGSKAVNWYQQKPGLAPGLLIYNDDERPSGVPDRFSGSNSGDTATLTISGAQAGDEADYYCQLWDSSAGAYVFGGGTQLTVTG
binding result: no binding

BINDER: ERR1-TOP4 chimeric rabbit/human Fab (Fab, V domains shown, Chimeric rabbit/human Fab with His tag, expressed in E. coli (pET11a); lambda light chain) VH: QSVEESGGRLVTPGTPLTLTCTASGIDLSRYAVNWVRQAPGKGLEWIGVISGSGTTYYASWAKGRFTISKTSTTVDLKITSPTTEDTATYFCARGWATDGIFDYDDTFNLWGPGTLVTVSS VL: SYELTQLPSVSVSLGQTARITCGGDSIESKAVHWYQQKPGLAPGLLVYNDDERPSGVPDRFSGSNSGDTATLTISGAQAGDEADYYCQLWDGSAYVFGGGTQLTVTG
binding result: no binding

BINDER: ERR1-TOP15 chimeric rabbit/human Fab (Fab, V domains shown, Chimeric rabbit/human Fab with His tag, expressed in E. coli (pET11a); lambda light chain) VH: QEQLVESGGRLVTPGGSLTLTCAASGFSPSSYWMSWVRQAPGKGLEWIGAIYVDSGSAYYASWAKSRFTISKTSSTTVDLKMTSLTTEDTAIYFCARDGWGSDVWGPGTLVTISS VL: SYELTQLPSVSVSLGQTARITCGGNSIGSKAVHWYQQKPGLAPGLLIYDDDERPSGVPDRFSGSNSGDTATLTISGAQAGDEADYYCQLWDSSAGAYVFGGGTQLTVTG
binding result: no binding

BINDER: XBR1-402 chimeric rabbit/human Fab (Fab, V domains shown, Chimeric rabbit/human Fab with His tag, expressed in E. coli (pC3C-His); lambda light chain) VH: QEQQKESGGGLFKPTDTLTLTCTASGFDISSYYMSWVRQAPGNGLEWIGAIGISGNAYYASWAKSRSTITRNTNLNTVTLKMTSLTAADTATYFCARDHPTYGMDLWGPGTLVTVSS VL: SYELTQLPSVSVSLGQTARITCEGNNIGSKAVHWYQQKPGLAPGLLIYDDDERPSGVPDRFSGSNSGDTATLTISGAQAGDEADYYCQVWDSSAYVFGGGTQLTVTG
binding result: no binding
